- measuredOn: CATPO T188A variant (Scytalidium thermophilum (Humicola insolens), UniProt M4GGR5, T207A)
- Sequence (M4GGR5 entry or part of it T207A): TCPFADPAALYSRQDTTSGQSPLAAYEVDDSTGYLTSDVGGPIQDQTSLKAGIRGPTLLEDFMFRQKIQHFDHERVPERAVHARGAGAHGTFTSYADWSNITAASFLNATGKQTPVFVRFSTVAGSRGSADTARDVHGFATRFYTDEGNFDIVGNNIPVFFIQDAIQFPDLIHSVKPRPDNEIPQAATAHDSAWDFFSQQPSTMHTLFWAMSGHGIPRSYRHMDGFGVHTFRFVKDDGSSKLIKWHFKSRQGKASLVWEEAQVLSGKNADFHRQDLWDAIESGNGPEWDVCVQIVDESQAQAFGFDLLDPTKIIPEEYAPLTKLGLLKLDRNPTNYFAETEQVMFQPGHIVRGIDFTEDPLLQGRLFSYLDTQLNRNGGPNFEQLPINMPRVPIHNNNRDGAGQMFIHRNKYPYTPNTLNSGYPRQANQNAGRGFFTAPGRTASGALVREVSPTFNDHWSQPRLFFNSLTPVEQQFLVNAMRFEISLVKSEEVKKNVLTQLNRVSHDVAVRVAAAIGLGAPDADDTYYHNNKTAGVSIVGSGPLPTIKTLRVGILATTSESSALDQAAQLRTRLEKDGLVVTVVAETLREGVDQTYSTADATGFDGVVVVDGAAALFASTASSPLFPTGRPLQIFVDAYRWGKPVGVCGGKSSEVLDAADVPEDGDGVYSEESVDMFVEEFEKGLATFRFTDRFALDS
- Assay type: biochemical
Marks after values point to notes of the source that are not given here.
assayEndpoint: k cat/K m

Jot down k cat/K m (CATPO T188A variant (Scytalidium thermophilum (Humicola insolens), UniProt M4GGR5, T207A)) of Oc1cccc(O)c1O . 660 ± 88 s^−1 M^−1 (×10^2)

Provide k cat/K m, recorded with CATPO T188A variant (Scytalidium thermophilum (Humicola insolens), UniProt M4GGR5, T207A), of Oc1ccc(O)cc1 [Hydroquinone, p-hydroquinone] 300 ± 30 s^−1 M^−1 (×10^2)

Report k cat/K m under test system CATPO T188A variant (Scytalidium thermophilum (Humicola insolens), UniProt M4GGR5, T207A) for CCn1c(=NN=c2sc3cc(S(=O)(=O)O)ccc3n2CC)sc2cc(S(=O)(=O)O)ccc21 . 90 ± 5 s^−1 M^−1 (×10^2)

Please tell me the measured k cat/K m for Cc1ccc(O)c(O)c1 ; system: CATPO T188A variant (Scytalidium thermophilum (Humicola insolens), UniProt M4GGR5, T207A). 1640 ± 210 s^−1 M^−1 (×10^2)

Would you please give the reported k cat/K m of Oc1ccccc1O with CATPO T188A variant (Scytalidium thermophilum (Humicola insolens), UniProt M4GGR5, T207A)? 2000 ± 120 s^−1 M^−1 (×10^2)

Lab note: CATPO T188A variant (Scytalidium thermophilum (Humicola insolens), UniProt M4GGR5, T207A) assay, enter k cat/K m for CC(C)(C)c1ccc(O)c(O)c1 here 1460 ± 150 s^−1 M^−1 (×10^2)

---

- measuredOn: CATPO T188I variant (Scytalidium thermophilum (Humicola insolens), UniProt M4GGR5, T207I)
- Sequence (M4GGR5 entry or part of it T207I): as the sequence (M4GGR5 entry or part of it T207A) above
- Format: biochemical
- recordedConditions: pH 7.0 (ABTS pH 5.0), 60°C
Labelling field: enter 1.0 if recorded K m is less than 40 mM. Enter 0.0 if it equals or exceeds that cut-off.

Hi there! Is K m for Cc1ccc(O)c(O)c1 below 40 mM, do you know? 1.0

Please indicate whether the reported K m of CC(C)(C)c1ccc(O)c(O)c1 is strictly below 40 mM. 1.0

Dear colleague, could you confirm whether K m of CCn1c(=NN=c2sc3cc(S(=O)(=O)O)ccc3n2CC)sc2cc(S(=O)(=O)O)ccc21 falls below 40 mM? Thanks. 0.0

Could you please tell me whether K m recorded for Oc1ccc(O)cc1 [Hydroquinone, p-hydroquinone] is less than 40 mM? 0.0

hey, is K m for Oc1ccccc1O lower than 40 mM or not? 1.0

Item Oc1cccc(O)c1O : K m beneath 40 mM, strictly? 1.0

---

- measuredOn: CATPO E484I variant (Scytalidium thermophilum (Humicola insolens), UniProt M4GGR5, E503I)
- Sequence (M4GGR5 entry or part of it E503I): as the sequence (M4GGR5 entry or part of it T207A) above
- testDescription: biochemical
- recordedConditions: catechol oxidation by E484I; read-out: K i
For each of the molecules below, state its Ki.

Check CATPO E484I variant (Scytalidium thermophilum (Humicola insolens), UniProt M4GGR5, E503I) data and give Ki for [F-].[Na+] [NaF, sodium fluoride] . 5.5 mM

Given [N-]=[N+]=[N-].[Na+] [Sodium azide, sodium azide] , report its Ki on CATPO E484I variant (Scytalidium thermophilum (Humicola insolens), UniProt M4GGR5, E503I). 56 mM

# assay system CATPO E484I variant (Scytalidium thermophilum (Humicola insolens), UniProt M4GGR5, E503I): give Ki of CCn1c(=NN=c2sc3cc(S(=O)(=O)O)ccc3n2CC)sc2cc(S(=O)(=O)O)ccc21 81 mM

---

- measuredOn: CATPO E484A variant (Scytalidium thermophilum (Humicola insolens), UniProt M4GGR5, E503A)
- Sequence (M4GGR5 entry or part of it E503A): as the sequence (M4GGR5 entry or part of it T207A) above
- testDescription: Substrate-specificity analysis of the phenol oxidase activity
- Format: biochemical
Would you mind telling me the reported log10(V max) of each entry?
Form field - Quantity: V max; Unit: mM/min; Scale: log10

Indicate the recorded log10(V max) value for this molecule: Oc1ccc(O)cc1 [Hydroquinone, p-hydroquinone] 4.25

Indicate the recorded log10(V max) value for this molecule: CCn1c(=NN=c2sc3cc(S(=O)(=O)O)ccc3n2CC)sc2cc(S(=O)(=O)O)ccc21 3.93

Please give measured log10(V max) of the following entry: CC(C)(C)c1ccc(O)c(O)c1 4.81

Look up and state reported log10(V max) for Oc1cccc(O)c1O 4.70

Using known records, supply log10(V max) for Oc1ccccc1O 4.94

Answer with the recorded log10(V max) for the molecule listed here: Cc1ccc(O)c(O)c1 4.88

---

- measuredOn: CATPO (Scytalidium thermophilum (Humicola insolens), UniProt M4GGR5)
- Sequence (M4GGR5 entry or part of it): as the sequence (M4GGR5 entry or part of it T207A) above
- testDescription: Inhibition of catechol oxidation
- Type: biochemical
- recordedConditions: catechol oxidase activity of wild-type CATPO; Lineweaver–Burk

compound | inhibition type
Nc1nc[nH]n1 [3TR, 3-amino-1,2,4-triazole] | competitive
O=C(NO)c1ccccc1O [Salicylhydroxamic acid, salicylhydroxamic acid] | competitive
[N-]=[N+]=[N-].[Na+] [Sodium azide, sodium azide] | competitive

---

- measuredOn: CATPO (Scytalidium thermophilum (Humicola insolens), UniProt M4GGR5)
- testDescription: Substrate-specificity analysis of the phenol oxidase activity
- Type: biochemical
assayEndpoint: V max (mM/min)
The reply should be a number in mM/min, with the unit left off.

Give V max only, for CC(C)(C)c1ccc(O)c(O)c1 [1,4-tert-Butylcatechol, 4-tert-butylcatechol] , using CATPO (Scytalidium thermophilum (Humicola insolens), UniProt M4GGR5) data. 20000

Look up CATPO (Scytalidium thermophilum (Humicola insolens), UniProt M4GGR5) data: V max of CCn1c(=NN=c2sc3cc(S(=O)(=O)O)ccc3n2CC)sc2cc(S(=O)(=O)O)ccc21 [ABTS] , then report it. 5620

Enter recorded V max with CATPO (Scytalidium thermophilum (Humicola insolens), UniProt M4GGR5) for Oc1cccc(O)c1O [Pyrogallol, pyrogallol] here. 18450

# lookup: CATPO (Scytalidium thermophilum (Humicola insolens), UniProt M4GGR5) V max, key = Oc1ccccc1O [Catechol, catechol] 25000

Output reported V max of the compound Cc1ccc(O)c(O)c1 [4-Methylcatechol, 4-methylcatechol] on CATPO (Scytalidium thermophilum (Humicola insolens), UniProt M4GGR5). 21320

Specify the recorded V max for Oc1ccc(O)cc1 [Hydroquinone, p-hydroquinone] , system: CATPO (Scytalidium thermophilum (Humicola insolens), UniProt M4GGR5). 10000

---

- measuredOn: CATPO T188I variant (Scytalidium thermophilum (Humicola insolens), UniProt M4GGR5, T207I)
- Format: biochemical
Marks after values point to notes of the source that are not given here.
For each of the molecules below, state its k cat/K m.

Consider the molecule Oc1cccc(O)c1O [Pyrogallol, pyrogallol] tested on CATPO T188I variant (Scytalidium thermophilum (Humicola insolens), UniProt M4GGR5, T207I); state its k cat/K m. 3470 ± 256 s^−1 M^−1 (×10^2)

Name the value of k cat/K m reported for CC(C)(C)c1ccc(O)c(O)c1 [1,4-tert-Butylcatechol, 4-tert-butylcatechol] when tested on CATPO T188I variant (Scytalidium thermophilum (Humicola insolens), UniProt M4GGR5, T207I). 4900 ± 410 s^−1 M^−1 (×10^2)

Send back CATPO T188I variant (Scytalidium thermophilum (Humicola insolens), UniProt M4GGR5, T207I) k cat/K m of Oc1ccccc1O [Catechol, catechol] only. 9200 ± 45 s^−1 M^−1 (×10^2)

Report value: k cat/K m, system: CATPO T188I variant (Scytalidium thermophilum (Humicola insolens), UniProt M4GGR5, T207I), molecule: Oc1ccc(O)cc1 [Hydroquinone, p-hydroquinone] 490 ± 78 s^−1 M^−1 (×10^2)

Report value only: k cat/K m, CATPO T188I variant (Scytalidium thermophilum (Humicola insolens), UniProt M4GGR5, T207I), CCn1c(=NN=c2sc3cc(S(=O)(=O)O)ccc3n2CC)sc2cc(S(=O)(=O)O)ccc21 [ABTS] 190 ± 18 s^−1 M^−1 (×10^2)

Send back CATPO T188I variant (Scytalidium thermophilum (Humicola insolens), UniProt M4GGR5, T207I) k cat/K m of Cc1ccc(O)c(O)c1 [4-Methylcatechol, 4-methylcatechol] only. 6600 ± 600 s^−1 M^−1 (×10^2)

---

Provide the recorded K m for the entries that follow.
- measuredOn: CATPO E484A variant (Scytalidium thermophilum (Humicola insolens), UniProt M4GGR5, E503A)
- testDescription: Substrate-specificity analysis of the phenol oxidase activity
- Format: biochemical
- recordedConditions: pH 7.0 (ABTS pH 5.0), 60°C
Lab book: enter the figure in mM, no units written.

Answer with the recorded K m for the compound listed here: CC(C)(C)c1ccc(O)c(O)c1 [1,4-tert-Butylcatechol, 4-tert-butylcatechol] 33

Write down K m measured for item Oc1ccc(O)cc1 [Hydroquinone, p-hydroquinone] 43

For Cc1ccc(O)c(O)c1 [4-Methylcatechol, 4-methylcatechol] , write its K m. 33

Supply reported K m belonging to this compound: Oc1cccc(O)c1O [Pyrogallol, pyrogallol] 36

Recall and state the measured K m for CCn1c(=NN=c2sc3cc(S(=O)(=O)O)ccc3n2CC)sc2cc(S(=O)(=O)O)ccc21 [ABTS] . 46

Tell us which K m value is on record for Oc1ccccc1O [Catechol, catechol] 30
